experiment: NCI Yeast Anticancer Drug Screen. Data for the sgs1 mgt1 strain (AID 161);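 further: 0% = growth of cultures given vehicle only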
run.parameters: S. cerevisiae sgs1 mgt1 strain, at 50.0 µM, hits give high values
Procedure: Growth inhibition of yeast strains with defined genetic alterations is measured as a screen for potential anti-cancer activity. Selected strains with alterations in DNA damage repair or cell cycle control were exposed to compounds and growth inhibition was measured relative to vehicle treated controls. The strain used in this assay is sgs1 mgt1
Compounds without any hit were thinned out: in the full panel of roughly 79,000, 15% have a hit.
For each record, write down the corresponding growth inhibition.
Answer with a number only, understood to be in %.

So for CCc1cccc(C)c1N1C(=O)C(=O)C(c2nc3ccccc3o2)C(=O)C1=O , the logged growth inhibition turned out to be 19.7

// field: growth inhibition; key: COc1ccccc1NC(=S)N/C=C(\C#N)c1nc2ccccc2s1 ; value = -8.9

Entry COc1ccccc1NC(=O)NC1CCCCC1 , growth inhibition reported as -8.2

Entry CC12CCC[C@@](C)(C(=O)OC3OC(CO)C(O)C(O)C3O)[C@H]1CCC13CC4CC(OC4(CO)[C@H]1O)[C@@H]23 (stereo not given in full) — recorded growth inhibition = -20.9

Looking up CCOC(=O)/C(C#N)=C/c1c(-c2ccccc2)nn2ccccc12 , I see its growth inhibition listed as 28.1
